# Run Description: Pharmacokinetic study in cynomolgus monkeys
# Type: in vivo
# Experimental Parameters: both sexes, cynomolgus, cynomolgus monkey, plasma, iv, 10 mg/kg, 10 mg/kg single intravenous infusion, individual animals
Property: AUC(0-inf) (ng·h/mL)

[[record]]
smiles_notation = "CC(C)(O/N=C(\\C(=O)N[C@@H]1C(=O)N2C(C(=O)[O-])=C(C[N+]3(CCN(CCCNC(=O)c4ccc(O)c(O)c4Cl)C(=O)c4ccc(O)c(O)c4Cl)CCCC3)CS[C@H]12)c1csc(N)n1)C(=O)O"
property = "AUC(0-inf)"
reported = 32900

[[record]]
smiles_notation = "CC(C)(O/N=C(\\C(=O)N[C@@H]1C(=O)N2C(C(=O)[O-])=C(C[N+]3(CCCN(CCCNC(=O)c4ccc(O)c(O)c4Cl)C(=O)c4ccc(O)c(O)c4Cl)CCCC3)CS[C@H]12)c1csc(N)n1)C(=O)O"
property = "AUC(0-inf)"
reported = 166000


---

# Run Description: Pharmacokinetic study in ICR mice
# Type: in vivo
# Experimental Parameters: both sexes, mouse, sc, 10 mg/kg subcutaneous injection, plasma
# Experimental: The formulation for administration was prepared on ice. A proper amount of the test compound was precisely weighed out, and a 90% volume of normal saline was slowly added. The mixture was ultrasonically stirred in an ice-water bath until no large pieces existed. After the mixture was well mixed, a 1 M NaOH solution was added in small portions using a pipette. • Species and strain: ICR mice • Animal grade: SPF • Animal source: Medicilon: 999M-018 […]
Property: Cmax (µg/mL)

[[record]]
smiles_notation = "CC(C)(O/N=C(\\C(=O)N[C@@H]1C(=O)N2C(C(=O)[O-])=C(C[N+]3(CCCN(CCCNC(=O)c4ccc(O)c(O)c4Cl)C(=O)c4ccc(O)c(O)c4Cl)CCCC3)CS[C@H]12)c1csc(N)n1)C(=O)O"
reported = 114


---

# Run Description: Pharmacokinetic study in ICR mice
# Format: in vivo
# Experimental Parameters: both sexes, mouse, sc, 100 mg/kg subcutaneous injection, plasma
Property: Tmax (min)

[[record]]
compound = "CC(C)(O/N=C(\\C(=O)N[C@@H]1C(=O)N2C(C(=O)[O-])=C(C[N+]3(CCCN(CCCNC(=O)c4ccc(O)c(O)c4Cl)C(=O)c4ccc(O)c(O)c4Cl)CCCC3)CS[C@H]12)c1csc(N)n1)C(=O)O"
result_unit = "min"
reported = 30

[[record]]
compound = "CC(C)(O/N=C(\\C(=O)N[C@@H]1C(=O)N2C(C(=O)[O-])=C(C[N+]3(CCNC(=O)c4ccc(O)c(O)c4Cl)CCCC3)CS[C@H]12)c1csc(N)n1)C(=O)O [Cefiderocol, reference compound]"
result_unit = "min"
reported = 15


---

# Run Description: Pharmacokinetic study in cynomolgus monkeys
# Assay type: in vivo
# Experimental Parameters: both sexes, cynomolgus, cynomolgus monkey, plasma, iv, 10 mg/kg, 10 mg/kg single intravenous infusion, individual animals
Property: AUC(0-t)

[[record]]
smiles_notation = "CC(C)(O/N=C(\\C(=O)N[C@@H]1C(=O)N2C(C(=O)[O-])=C(C[N+]3(CCN(CCCNC(=O)c4ccc(O)c(O)c4Cl)C(=O)c4ccc(O)c(O)c4Cl)CCCC3)CS[C@H]12)c1csc(N)n1)C(=O)O"
property = "AUC(0-t)"
reported = "29.3 µg·h/mL"

[[record]]
smiles_notation = "CC(C)(O/N=C(\\C(=O)N[C@@H]1C(=O)N2C(C(=O)[O-])=C(C[N+]3(CCCN(CCCNC(=O)c4ccc(O)c(O)c4Cl)C(=O)c4ccc(O)c(O)c4Cl)CCCC3)CS[C@H]12)c1csc(N)n1)C(=O)O"
property = "AUC(0-t)"
reported = "149 µg·h/mL"


---

# Run Description: Pharmacokinetic study in cynomolgus monkeys
# Format: in vivo
# Experimental Parameters: both sexes, cynomolgus, cynomolgus monkey, plasma, iv, 10 mg/kg, 10 mg/kg single intravenous infusion, individual animals, read-out: MRT
Property: MRT (h)

[[record]]
smiles_notation = "CC(C)(O/N=C(\\C(=O)N[C@@H]1C(=O)N2C(C(=O)[O-])=C(C[N+]3(CCN(CCCNC(=O)c4ccc(O)c(O)c4Cl)C(=O)c4ccc(O)c(O)c4Cl)CCCC3)CS[C@H]12)c1csc(N)n1)C(=O)O"
reported = 0.64

[[record]]
smiles_notation = "CC(C)(O/N=C(\\C(=O)N[C@@H]1C(=O)N2C(C(=O)[O-])=C(C[N+]3(CCCN(CCCNC(=O)c4ccc(O)c(O)c4Cl)C(=O)c4ccc(O)c(O)c4Cl)CCCC3)CS[C@H]12)c1csc(N)n1)C(=O)O"
reported = 2.5


---

# Run Description: Pharmacokinetic study in ICR mice
# Assay type: in vivo
# Experimental Parameters: both sexes, mouse, sc, 10 mg/kg subcutaneous injection, plasma
Property: half-life (min)

[[record]]
molecule = "CC(C)(O/N=C(\\C(=O)N[C@@H]1C(=O)N2C(C(=O)[O-])=C(C[N+]3(CCCN(CCCNC(=O)c4ccc(O)c(O)c4Cl)C(=O)c4ccc(O)c(O)c4Cl)CCCC3)CS[C@H]12)c1csc(N)n1)C(=O)O [Compound 3]"
result_unit = "min"
reported = 39.9


---

# Run Description: Pharmacokinetic study in ICR mice
# Type: in vivo
# Experimental Parameters: both sexes, mouse, sc, 100 mg/kg subcutaneous injection, plasma
Overview of reported AUC(0-t) across a group of molecules:
Property: AUC(0-t) (µg·h/mL)

[[record]]
molecule = "CC(C)(O/N=C(\\C(=O)N[C@@H]1C(=O)N2C(C(=O)[O-])=C(C[N+]3(CCCN(CCCNC(=O)c4ccc(O)c(O)c4Cl)C(=O)c4ccc(O)c(O)c4Cl)CCCC3)CS[C@H]12)c1csc(N)n1)C(=O)O [Compound 3]"
result_unit = "µg·h/mL"
reported = 1100

[[record]]
molecule = "CC(C)(O/N=C(\\C(=O)N[C@@H]1C(=O)N2C(C(=O)[O-])=C(C[N+]3(CCNC(=O)c4ccc(O)c(O)c4Cl)CCCC3)CS[C@H]12)c1csc(N)n1)C(=O)O [Cefiderocol, reference compound]"
result_unit = "µg·h/mL"
reported = 261


---

# Run Description: Pharmacokinetic study in ICR mice
# Assay type: in vivo
# Experimental Parameters: both sexes, mouse, sc, 10 mg/kg subcutaneous injection, plasma
Property: AUC(0-t) (µg·h/mL)

[[record]]
smiles_notation = "CC(C)(O/N=C(\\C(=O)N[C@@H]1C(=O)N2C(C(=O)[O-])=C(C[N+]3(CCCN(CCCNC(=O)c4ccc(O)c(O)c4Cl)C(=O)c4ccc(O)c(O)c4Cl)CCCC3)CS[C@H]12)c1csc(N)n1)C(=O)O"
property = "AUC(0-t)"
reported = 109


---

# Run Description: Pharmacokinetic study in cynomolgus monkeys
# Assay type: in vivo
# Experimental Parameters: both sexes, cynomolgus, cynomolgus monkey, plasma, iv, 10 mg/kg, 10 mg/kg single intravenous infusion, individual animals
# Experimental: An appropriate amount of a test compound was weighed precisely and added to a container, and 0.9% sodium chloride injection and 0.2 M NaOH solution were added thereto in an ice bath until the test compound was completely dissolved, so that a sample solution at a concentration of 2 mg/mL was obtained followed by storage at 2-8° C. for later use. […]
Property: half-life (h)

[[record]]
smiles_notation = "CC(C)(O/N=C(\\C(=O)N[C@@H]1C(=O)N2C(C(=O)[O-])=C(C[N+]3(CCN(CCCNC(=O)c4ccc(O)c(O)c4Cl)C(=O)c4ccc(O)c(O)c4Cl)CCCC3)CS[C@H]12)c1csc(N)n1)C(=O)O"
property = "half-life"
reported = 0.62

[[record]]
smiles_notation = "CC(C)(O/N=C(\\C(=O)N[C@@H]1C(=O)N2C(C(=O)[O-])=C(C[N+]3(CCCN(CCCNC(=O)c4ccc(O)c(O)c4Cl)C(=O)c4ccc(O)c(O)c4Cl)CCCC3)CS[C@H]12)c1csc(N)n1)C(=O)O"
property = "half-life"
reported = 2.57


---

# Run Description: Pharmacokinetic study in cynomolgus monkeys
# Assay type: in vivo
# Experimental Parameters: both sexes, cynomolgus, cynomolgus monkey, plasma, iv, 10 mg/kg, 10 mg/kg single intravenous infusion, individual animals, read-out: Vd
Property: Vd (L/kg)

[[record]]
molecule = "CC(C)(O/N=C(\\C(=O)N[C@@H]1C(=O)N2C(C(=O)[O-])=C(C[N+]3(CCN(CCCNC(=O)c4ccc(O)c(O)c4Cl)C(=O)c4ccc(O)c(O)c4Cl)CCCC3)CS[C@H]12)c1csc(N)n1)C(=O)O [Compound 1]"
property = "Vd"
result_unit = "L/kg"
reported = 0.27

[[record]]
molecule = "CC(C)(O/N=C(\\C(=O)N[C@@H]1C(=O)N2C(C(=O)[O-])=C(C[N+]3(CCCN(CCCNC(=O)c4ccc(O)c(O)c4Cl)C(=O)c4ccc(O)c(O)c4Cl)CCCC3)CS[C@H]12)c1csc(N)n1)C(=O)O [Compound 3]"
property = "Vd"
result_unit = "L/kg"
reported = 0.223

